# Tested on: 786-0
# test_summary: NCI tumour cell line growth inhibition, 48 h
Activity calls are given as the source filed them. Rule as the data show it: active = GI50 up to about 1.1 µM and inactive = higher.
Pick from class 1 (active), class 0 (inactive) when you respond.

The examples below pair each entry with its known result.
Hi, sorry to bother you, what did the test record for O=C1/C(=C/c2ccccc2)CN(C(=O)CCN2CCCC2)C/C1=C\c1ccccc1 ?
class 1

Record: Cn1c2c(c3ccccc31)CCN=C2C1CCCOC1=O (stereo not given)
class 0

Can you handle c1ccc(/N=C2\C(=N/c3ccccc3)N(C3CCCCC3)/C(=N\C3CCCCC3)N2c2ccccc2)cc1 next?
class 0

Again, but for CC(C)[Si](OC1=CCC[C@H]2NC(=O)[C@@H](Cc3ccccc3)[C@@]12C)(C(C)C)C(C)C
class 0

// repeat for COC(=O)C1=C(OC(=O)/C(=C/c2ccccc2)c2ccc(OC)cc2)C(C(=O)OC)[C@@]2(O)[C@@H](C(=O)OC)[C@H](C)C[C@@H]1[C@@H]2C(=O)OC (stereo not given in full) and report
class 0

What would you report for Cc1c(NC(=O)c2cc([N+](=O)[O-])cc([N+](=O)[O-])c2)c(=O)n(-c2ccccc2)n1C ?
class 0

Field entry: CC(=O)Nc1c(S(=O)(=O)c2ccccc2)c(C)c(C)n1Cc1ccccc1
class 0

Another compound to look at: CCOC(=O)CCC(NC(=O)c1ccc(Nc2nc3ccccc3nc2C(=O)OCC)s1)C(=O)OCC (stereo not given)
class 0

New cases:
Which outcome was assigned to O=C(O)CCC(NC(=O)/C(=C/c1ccccc1)NC(=O)c1ccccc1)C(=O)O (stereo not given) in this test?
class 0

Same lookup for OC1(c2ccc(Cl)cc2)c2c(c3ccccc3c3ccccc23)C2=NCCN21 (stereo not given) , please.
class 0

Could you do the same for COc1cc2c(cc1OC)C1Cc3ccc(OC)c(OC)c3C[N+]1([O-])CC2 (stereo not given) , please?
class 0

Now this one: C=C1C(O)C[C@H](OC(C)=O)[C@]2(C)C1C(OC(C)=O)[C@]1(C(C)(C)O)CC(O)C(C)=C1[C@@H](OC(=O)c1ccccc1)C2OC(C)=O (stereo not given in full)
class 0

Follow-up entry: O=[N+]([O-])/C(Cl)=C(\Sc1ccccc1)C(Cl)=C(Cl)Cl
class 1

And the next one, Nc1cc2c3c(cccc3c1)NC2=O ?
class 0

Entry CCc1ccccc1NC(=O)CC1NC(=O)CS1 (stereo not given) please
class 0

And O=c1c2cc([N+](=O)[O-])ccc2n2n1CCCCC2 ?
class 0

----------
# System: UACC-62
# test_summary: NCI tumour cell line growth inhibition, 48 h
The source made the active and inactive calls. Cut-off read from the data, not from the text of the source: active = GI50 up to about 1.1 µM and inactive = higher.
Outcomes you can answer with include only these: active, inactive

Worked set:
What outcome does the record of this test show for COc1cc(OC)cc(C(=O)CC(=O)c2cc(OC)cc(OC)c2)c1 ?
inactive

Further, for C[C@]12CC[C@H](O)CC1CCC[C@@H]2O (some centres undefined) ?
inactive

What about CCOC(=O)/C(O)=C(/c1n[nH]c(=O)c2ccccc12)[N+](=O)[O-] ?
inactive

Thanks! And COC(=O)C1=C(OC(=O)/C(=C/c2ccccc2)c2ccc(OC)cc2)C(C(=O)OC)[C@@]2(O)[C@@H](C(=O)OC)[C@H](C)C[C@@H]1[C@@H]2C(=O)OC (some centres undefined) ?
inactive

---
Look up the recorded call for Clc1ccc(C(n2cc(Br)cn2)n2cc(Br)cn2)cc1 in this test.
inactive

Continue with O=C1C([P+](c2ccccc2)(c2ccccc2)c2ccccc2)=C([O-])C(=Cc2ccc(Cl)c(Cl)c2)C([O-])=C1[P+](c1ccccc1)(c1ccccc1)c1ccccc1
inactive

Moving on to the next compound: CC(C)[Si](OC1=CCC[C@H]2NC(=O)[C@@H](Cc3ccccc3)[C@@]12C)(C(C)C)C(C)C
inactive
